Entry source: paper PMC4104174

Reported pKi, human carbonic anhydrase II (hCAII) (Homo sapiens, UniProt P00918).
Answers are plain numbers, as −log10 of the molar value.

Before answering, review these 2 worked examples.
Cc1cc(=S)c(O)co1 [ATM, 5-hydroxy-2-methyl-4H-pyran-4-thione]; 3.19
Cc1occc(=S)c1O [TM, 3-hydroxy-2-methyl-4H-pyran-4-thione]; 2.85

Now consider the entry below.
Query :: Looking for the measured pKi of Oc1coccc1=S [TPMA, 3-hydroxy-4H-pyran-4-thione] , can you help?
Result :: 2.96
